These measurements were taken from ChEMBL document CHEMBL1129198.

Tested on: Staphylococcus aureus
assay comment: Antibacterial activity against methicillin-resistant Staphylococcus aureus 601053.
Format: functional
The label YES is reserved for MIC strictly under 1 µg/mL; NO covers values equal to or above it.

smiles str: C[C@@H](O)[C@H]1C(=O)N2C(C(=O)O)=C(CNC(=O)c3ccc4ccccc4c3)[C@H](C)[C@H]12
category label: NO

smiles str: Cc1nc2ccc(SCC3=C(C(=O)O)N4C(=O)[C@H]([C@@H](C)O)[C@H]4[C@H]3C)cc2s1
category label: NO

smiles str: C[C@@H](O)[C@H]1C(=O)N2C(C(=O)O)=C(CSc3ccc4c(c3)CCC4=O)[C@H](C)[C@H]12
category label: YES

smiles str: C[C@@H](O)[C@H]1C(=O)N2C(C(=O)O)=C(CSc3ccc4ccccc4c3)[C@H](C)[C@H]12
category label: YES

smiles str: C[C@@H](O)[C@H]1C(=O)N2C(C(=O)O)=C(Sc3ccc(C#N)c4ccccc34)[C@H](C)[C@H]12
category label: YES

smiles str: C[C@@H](O)[C@H]1C(=O)N2C(C(=O)O)=C(COc3ccc4ccccc4c3)[C@H](C)[C@H]12
category label: YES

Now for another entry.
Task: Is MIC of `C[C@@H](O)[C@H]1C(=O)N2C(C(=O)O)=C(COc3ccc4occ(CN(C)C)c(=O)c4c3)[C@H](C)[C@H]12` strictly below 1 µg/mL?
Output: YES

----------
Tested on: Streptococcus pneumoniae
assay comment: Antibacterial activity against penicillin-resistant Streptococcus pneumoniae 671319
Assay type: functional
Below, each entry is listed alongside its reported MIC.
Respond numerically; units are µg/mL and should not be typed.

A selection of reference data follows.
compound: C[C@@H](O)[C@H]1C(=O)N2C(C(=O)O)=C(SCCNC=N)C[C@H]12 [IMIPENEM ANHYDROUS]
MIC [µg/mL]: 0.12
//
compound: C[C@@H](O)[C@H]1C(=O)N2C(C(=O)O)=C(Sc3cccc4ccccc34)[C@H](C)[C@H]12
MIC [µg/mL]: 1
//
compound: C[C@@H](O)[C@H]1C(=O)N2C(C(=O)O)=C(COc3ccc4cc(C(N)=O)ccc4c3)[C@H](C)[C@H]12
MIC [µg/mL]: 0.03
//
compound: C[C@@H](O)[C@H]1C(=O)N2C(C(=O)O)=C(CSc3ccc4c(c3)OCCC4=O)[C@H](C)[C@H]12
MIC [µg/mL]: 0.03
//
compound: C[C@@H](O)[C@H]1C(=O)N2C(C(=O)O)=C(SCCNC(=O)c3ccc4ccccc4c3)[C@H](C)[C@H]12
MIC [µg/mL]: 0.25
//
compound: C[C@@H](O)[C@H]1C(=O)N2C(C(=O)O)=C(COc3cccc4c3CCC4=O)[C@H](C)[C@H]12
MIC [µg/mL]: 0.06

Task: Write down the reported MIC of `Cc1nc2ccc(SCC3=C(C(=O)O)N4C(=O)[C@H]([C@@H](C)O)[C@H]4[C@H]3C)cc2s1` , test system: Streptococcus pneumoniae.
Output: 0.06

----------
Below, each entry is listed alongside its reported MIC.
Test system: Staphylococcus aureus
assay comment: Antibacterial activity against methicillin-sensitive Staphylococcus aureus 601055.
Assay type: functional
Respond numerically; units are µg/mL and should not be typed.

A selection of reference data follows.
smiles str: C[C@@H](O)[C@H]1C(=O)N2C(C(=O)O)=C(COc3ccc4c(c3)CCC4)[C@H](C)[C@H]12
metric: MIC
readout number: 0.03
--
smiles str: C[C@@H](O)[C@H]1C(=O)N2C(C(=O)O)=C(CSc3ccc4c(c3)CCC4=O)[C@H](C)[C@H]12
metric: MIC
readout number: 0.016
--
smiles str: C[C@@H](O)[C@H]1C(=O)N2C(C(=O)O)=C(COc3ccc4occc(=O)c4c3)[C@H](C)[C@H]12
metric: MIC
readout number: 0.016
--
smiles str: C[C@@H](O)[C@H]1C(=O)N2C(C(=O)O)=C(CSc3ccc4ccccc4n3)[C@H](C)[C@H]12
metric: MIC
readout number: 0.016

Next:
Task: # MIC lookup, item `C[C@@H](O)[C@H]1C(=O)N2C(C(=O)O)=C(SCc3ccc4ccccc4c3)[C@H](C)[C@H]12`
Output: 0.06

----------
System: Staphylococcus aureus
assay comment: Antibacterial activity against methicillin-resistant Staphylococcus aureus 601053.
Format: functional
metric: MIC (µg/mL)
Respond numerically; units are µg/mL and should not be typed.

A selection of reference data follows.
molecule: C[C@@H](O)[C@H]1C(=O)N2C(C(=O)O)=C(COc3cccc4c3CCCC4=O)[C@H](C)[C@H]12
metric: MIC
readout unit: µg/mL
readout number: 0.25

molecule: C[C@@H](O)[C@H]1C(=O)N2C(C(=O)[O-])=C(COc3ccc4cc(Cn5cc[n+](C)c5)ccc4c3)[C@H](C)[C@H]12
metric: MIC
readout unit: µg/mL
readout number: 0.5

molecule: C[C@@H](O)[C@H]1C(=O)N2C(C(=O)O)=C(CSc3ccc4ccccc4n3)[C@H](C)[C@H]12
metric: MIC
readout unit: µg/mL
readout number: 0.13

molecule: C[C@@H](O)[C@H]1C(=O)N2C(C(=O)O)=C(SCCNC=N)C[C@H]12 [IMIPENEM ANHYDROUS]
metric: MIC
readout unit: µg/mL
readout number: 8

molecule: C[C@@H](O)[C@H]1C(=O)N2C(C(=O)O)=C(Sc3ccc4ccccc4c3)[C@H](C)[C@H]12
metric: MIC
readout unit: µg/mL
readout number: 1

molecule: C[C@@H](O)[C@H]1C(=O)N2C(C(=O)O)=C(CSc3ccc4c(c3)OCCC4=O)[C@H](C)[C@H]12
metric: MIC
readout unit: µg/mL
readout number: 1

Task: # MIC lookup, item `C[C@@H](O)[C@H]1C(=O)N2C(C(=O)O)=C(SCCNC(=O)c3ccc4ccccc4c3)[C@H](C)[C@H]12`
Output: 4

Task: # MIC lookup, item `C[C@@H](O)[C@H]1C(=O)N2C(C(=O)O)=C(COc3ccc4occc(=O)c4c3)[C@H](C)[C@H]12`
Output: 0.25

Task: # MIC lookup, item `C[C@@H](O)[C@H]1C(=O)N2C(C(=O)O)=C(COc3cccc4c3C/C(=C\c3cccs3)C4=O)[C@H](C)[C@H]12`
Output: 0.25

----------
System: Enterococcus faecium
assay comment: Antibacterial activity against vancomycin-resistant Enterococcus faecium 628016.
Type: functional
metric: MIC
Field: value (include unit after the number)

A selection of reference data follows.
molecule: C[C@@H](O)[C@H]1C(=O)N2C(C(=O)O)=C(COc3ccc4occ(CN(C)C)c(=O)c4c3)[C@H](C)[C@H]12
result: 2 µg/mL
--
molecule: C[C@@H](O)[C@H]1C(=O)N2C(C(=O)O)=C(SCCc3ccc4ccccc4c3)[C@H](C)[C@H]12
result: 16 µg/mL
--
molecule: C[C@@H](O)[C@H]1C(=O)N2C(C(=O)O)=C(COc3cccc4c3CCC4=O)[C@H](C)[C@H]12
result: 2 µg/mL
--
molecule: C[C@@H](O)[C@H]1C(=O)N2C(C(=O)O)=C(SCCNC(=O)c3ccc4ccccc4c3)[C@H](C)[C@H]12
result: 8 µg/mL
--
molecule: C[C@@H](O)[C@H]1C(=O)N2C(C(=O)O)=C(Sc3cccc4ccccc34)[C@H](C)[C@H]12
result: 32 µg/mL

Task: Write down the reported MIC of `C[C@@H](O)[C@H]1C(=O)N2C(C(=O)O)=C(COc3cccc4c3CCCC4=O)[C@H](C)[C@H]12` , test system: Enterococcus faecium.
Output: 2 µg/mL

Task: Write down the reported MIC of `C[C@@H](O)[C@H]1C(=O)N2C(C(=O)O)=C(CNC(=O)c3ccc4ccccc4c3)[C@H](C)[C@H]12` , test system: Enterococcus faecium.
Output: 32 µg/mL

Task: Write down the reported MIC of C[C@@H](O)[C@H]1C(=O)N2C(C(=O)O)=C(SCCNC=N)C[C@H]12 [IMIPENEM ANHYDROUS] , test system: Enterococcus faecium.
Output: 4 µg/mL

Task: Write down the reported MIC of `C[C@@H](O)[C@H]1C(=O)N2C(C(=O)O)=C(CSc3ccc4c(c3)OCCC4=O)[C@H](C)[C@H]12` , test system: Enterococcus faecium.
Output: 0.5 µg/mL

Task: Write down the reported MIC of `C[C@@H](O)[C@H]1C(=O)N2C(C(=O)O)=C(COc3ccc4ccccc4c3)[C@H](C)[C@H]12` , test system: Enterococcus faecium.
Output: 64 µg/mL

Task: Write down the reported MIC of `C[C@@H](O)[C@H]1C(=O)N2C(C(=O)[O-])=C(COc3ccc4nc(C[n+]5ccccc5)sc4c3)[C@H](C)[C@H]12` , test system: Enterococcus faecium.
Output: 2 µg/mL

Task: Write down the reported MIC of `C[C@@H](O)[C@H]1C(=O)N2C(C(=O)O)=C(CSc3ccc4c(c3)CCC4=O)[C@H](C)[C@H]12` , test system: Enterococcus faecium.
Output: 0.5 µg/mL

Task: Write down the reported MIC of `C[C@@H](O)[C@H]1C(=O)N2C(C(=O)O)=C(COc3ccc4c(c3)CCC4)[C@H](C)[C@H]12` , test system: Enterococcus faecium.
Output: 32 µg/mL

Task: Write down the reported MIC of `C[C@@H](O)[C@H]1C(=O)N2C(C(=O)O)=C(SCc3ccc4ccccc4c3)[C@H](C)[C@H]12` , test system: Enterococcus faecium.
Output: 8 µg/mL

Task: Write down the reported MIC of `Cc1nc2ccc(SCC3=C(C(=O)O)N4C(=O)[C@H]([C@@H](C)O)[C@H]4[C@H]3C)cc2s1` , test system: Enterococcus faecium.
Output: 8 µg/mL
